system: Akt-pS473 in U87MG cells; conditions: Homo sapiens, U-87 MG, read-out: U87 Akt-pS473 % Inhibition or IC50, nM (IC50)

recordSmiles	IC50
CCN1CC(C)(C)Oc2nc(N3CCOC[C@@H]3C)nc(-c3ccc(NC(=O)Oc4cccc(OC)c4)cc3)c2C1=O	> 1000 nM

----------
system: U87MG tumour cells; test: Test of in vitro proliferation of U87MG tumour cells; assay type: cell-based; conditions: Homo sapiens, U-87 MG, 72 h, U87MG cells, 72 hours; read-out: U87 Cell Proliferation IC50
Rule: IC50 below 0.2 µM gives t, anything at or above gives f.

molecule	assayedSystem	groupLabel
CCN1CC(C)(C)Oc2nc(N3CCOC[C@@H]3C)nc(-c3ccc(NC(=O)Nc4ccc(OC)nc4)c(F)c3)c2C1=O [Example 141]	U87MG tumour cells	t
CCN1CC(C)(C)Oc2nc(N3CC4CCC(C3)O4)nc(-c3ccc(NC(=O)Nc4ccnc(N5CCC(F)(F)CC5)c4)c(F)c3)c2C1=O [Example 261]	U87MG tumour cells	t
CCN1CC(C)(C)Oc2nc(N3C4CCC3COC4)nc(-c3ccc(NC(=O)Nc4cc(OC)ccn4)cc3F)c2C1=O [Example 89]	U87MG tumour cells	f
CCN1CC(C)(C)Oc2nc(N3CCOC[C@@H]3C)nc(-c3ccc(NC(=O)Nc4ccc(C(=O)N(C)CCN(C)C)cc4)cc3)c2C1=O [Example 215]	U87MG tumour cells	t
CCN1CC(C)(C)Oc2nc(N3CC4CCC(C3)O4)nc(-c3ccc(NC(=O)Nc4cccnc4)c(F)c3)c2C1=O [Example 223]	U87MG tumour cells	t
CCN1CC(C)(C)Oc2nc(N3C4CCC3COC4)nc(-c3ccc(NC(=O)Nc4cccnc4)c(F)c3)c2C1=O [Example 50]	U87MG tumour cells	t
CCN1CC(C)(C)Oc2nc(N3CC4CCC(C3)O4)nc(-c3ccc(NC(=O)Nc4ccc(OC)nc4)c(C)c3)c2C1=O [Example 175]	U87MG tumour cells	f
CCN1CC(C)(C)Oc2nc(N3C4CCC3COC4)nc(-c3ccc(NC(=O)Nc4ccc(N5CCOCC5(C)C)nc4)c(F)c3)c2C1=O [Example 257]	U87MG tumour cells	t
COCCN1CC(C)(C)Oc2nc(N3CC4CCC(C3)O4)nc(-c3ccc(NC(=O)Nc4cccc(OC(F)F)c4)c(F)c3)c2C1=O [Example 220]	U87MG tumour cells	f
CCN1CC(C)(C)Oc2nc(N3CCOC[C@@H]3C)nc(-c3ccc(NC(=O)Nc4ccnc(C)c4)c(F)c3)c2C1=O [Example 199]	U87MG tumour cells	t
CCNC(=O)Nc1ccc(-c2nc(N3CC4CCC(C3)O4)nc3c2C(=O)N(CC)CC(C)(C)O3)cc1F [Example 110]	U87MG tumour cells	f
CCN1CC(C)(C)Oc2nc(N3CCOC[C@@H]3C)nc(-c3ccc(NC(=O)Nc4cc(OC)c(F)cc4F)cc3)c2C1=O [Example 208]	U87MG tumour cells	t
CCN1CC(C)(C)Oc2nc(N3CCOC[C@@H]3C)nc(-c3ccc(NC(=O)Nc4ccc(C)cn4)cc3)c2C1=O [Example 168]	U87MG tumour cells	f
CCN1CC(C)(C)Oc2nc(N3CCOC[C@@H]3C)nc(-c3ccc(NC(=O)Nc4nnc(C)o4)c(F)c3)c2C1=O [Example 170]	U87MG tumour cells	f
CCN1CC(C)(C)Oc2nc(N3CCOCC3)nc(-c3ccc(OC)c(CO)c3)c2C1=O [Example 100]	U87MG tumour cells	f
CCN1CC(C)(C)Oc2nc(N3[C@@H]4CC[C@H]3COC4)nc(-c3ccc(NC(=O)Nc4ccncc4F)cc3)c2C1=O [Example 75]	U87MG tumour cells	t
CCN1CC(C)(C)Oc2nc(N3CC4CCC(C3)O4)nc(-c3ccc(NC(=O)Nc4ccc(C)nc4)c(F)c3)c2C1=O [Example 185]	U87MG tumour cells	t
CC[C@H]1COCCN1c1ccc(NC(=O)Nc2ccc(-c3nc(N4CCOC[C@@H]4C)nc4c3C(=O)N(CC)CC(C)(C)O4)cc2F)cn1 [Example 248]	U87MG tumour cells	t
CCN1CC(C)(C)Oc2nc(N3CC4CCC(C3)O4)nc(-c3ccc(NC(=O)Nc4ccc(N5CCS(=O)(=O)CC5)cc4)c(F)c3)c2C1=O [Example 237]	U87MG tumour cells	t
CCN1CC(C)(C)Oc2nc(N3CC4CCC(C3)O4)nc(-c3ccc(NC(=O)Nc4ccc(C(F)(F)F)cc4F)cc3)c2C1=O [Example 154]	U87MG tumour cells	t
CCN1CC(C)(C)Oc2nc(N3CC4CCC(C3)O4)nc(-c3ccc(NC(=O)O[C@H](C)CO)c(F)c3)c2C1=O [Example 62]	U87MG tumour cells	f
CCNC(=O)Nc1ccc(-c2nc(N3CC4CCC(C3)O4)nc3c2C(=O)N(C[C@@H]2CCCN2C(=O)OCC)CC(C)(C)O3)cc1F [Example 5]	U87MG tumour cells	f
CCN1CC(C)(C)Oc2nc(N3CC4CCC(C3)O4)nc(-c3ccc(NC(=O)Nc4cnc(OC)cn4)cc3)c2C1=O [Example 198]	U87MG tumour cells	f
Cc1cc(NC(=O)Nc2ccc(-c3nc(N4C5CCC4COC5)nc4c3C(=O)N(C)CC(C)(C)O4)cc2F)ccn1 [Example 59]	U87MG tumour cells	t
Cc1cc(NC(=O)Nc2ccc(-c3nc(N4CC5CCC(C4)O5)nc4c3C(=O)N(C3CCOCC3)CC(C)(C)O4)cc2)no1 [Example 15]	U87MG tumour cells	f
COc1ccc(NC(=O)Nc2ccc(-c3nc(N4C5CCC4COC5)nc4c3C(=O)N(C)CC(C)(C)O4)cc2)nc1 [Example 49]	U87MG tumour cells	t
CCNC(=O)Nc1ccc(-c2nc(N3CC4CCC(C3)O4)nc3c2C(=O)N(C[C@@H]2CCCN2C(C)=O)CC(C)(C)O3)cc1F [Example 6]	U87MG tumour cells	f
CCN1CC(C)(C)Oc2nc(N3CCOC[C@@H]3C)nc(-c3ccc(NC(=O)Nc4ccc(OC)nc4)c(C)c3)c2C1=O [Example 196]	U87MG tumour cells	f
CN1CC(C)(C)Oc2nc(N3C4CCC3COC4)nc(-c3ccc(NC(=O)Nc4ccncc4)c(F)c3)c2C1=O [Example 82]	U87MG tumour cells	t
